# Tested on: 415267-285-R-J2-PDC complex spheroid viability
# ASSAY_TEXT: Anticancer human tumor 415267-285-R-J2-PDC patient-derived breast carcinoma cell line growth inhibition [POLQ]
# STATED_CONDITIONS: second compound 10 µM; first compound 0.1 µM; active compounds read low
// reported viability, T/C for each item listed

Answered examples (6):
• C=CC(=O)N1CCN(c2nc(=O)n(-c3c(C)ccnc3C(C)C)c3nc(-c4c(O)cccc4F)c(F)cc23)C(C)C1 (stereo unspecified) + COC1C(OC(N)=O)C(O)C(Oc2ccc3c(O)c(NC(=O)c4ccc(O)c(CC=C(C)C)c4)c(=O)oc3c2C)OC1(C)C = 95.8%
• COc1cc(C2c3cc4c(cc3C(OC3OC5COC(C)OC5C(O)C3O)C3COC(=O)C23)OCO4)cc(OC)c1O (stereo unspecified) + Cc1cccc(N(C)C(=O)C2C(O)CCN2c2nc(C)cc(C(F)(F)F)c2C#N)c1 = 47%
• COc1ccc([C@@H](O)c2cc(-c3ncnc4cc(N5CCOCC5)ccc34)c(F)cc2Cl)nn1 + Cc1cccc(N(C)C(=O)C2C(O)CCN2c2nc(C)cc(C(F)(F)F)c2C#N)c1 = 99.3%
• CCc1c2c(nc3ccc(O)cc13)-c1cc3c(c(=O)n1C2)COC(=O)[C@]3(O)CC + Cc1cccc(N(C)C(=O)C2C(O)CCN2c2nc(C)cc(C(F)(F)F)c2C#N)c1 = 3.72%
• Nc1ccn(C2OC(CO)C(O)C2(F)F)c(=O)n1 (stereo unspecified) + Cc1cccc(N(C)C(=O)C2C(O)CCN2c2nc(C)cc(C(F)(F)F)c2C#N)c1 = 6.37%
• CCc1cc2c(N3CCc4c(cc(Cn5ccnc5)cc4-c4cn(C)nc4C(F)(F)F)C3=O)ccnc2c(OC)n1 + Cc1cccc(N(C)C(=O)C2C(O)CCN2c2nc(C)cc(C(F)(F)F)c2C#N)c1 = 100%

Quick one: give measured viability, T/C for CC[C@@]1(O)C(=O)OCc2c1cc1n(c2=O)Cc2cc3c(CN(C)C)c(O)ccc3nc2-1 + COC1C(OC(N)=O)C(O)C(Oc2ccc3c(O)c(NC(=O)c4ccc(O)c(CC=C(C)C)c4)c(=O)oc3c2C)OC1(C)C
7.99%

Quick one: give measured viability, T/C for COc1cc2cc(C(=O)CCC(=O)O)sc2cc1OC + Cc1cccc(N(C)C(=O)C2C(O)CCN2c2nc(C)cc(C(F)(F)F)c2C#N)c1
112%

Quick one: give measured viability, T/C for COc1cc2cc(C(=O)CCC(=O)O)sc2cc1OC + Nc1ccc(C#CCN(C(=O)Cc2ncc(C(F)(F)F)cc2C(F)(F)F)c2ccc(F)cc2)nn1
97.4%

Quick one: give measured viability, T/C for C=CC(=O)N1CCN(c2nc(=O)n(-c3c(C)ccnc3C(C)C)c3nc(-c4c(O)cccc4F)c(F)cc23)C(C)C1 (stereo unspecified) + Cc1cccc(N(C)C(=O)C2C(O)CCN2c2nc(C)cc(C(F)(F)F)c2C#N)c1
90.8%

Quick one: give measured viability, T/C for O=C(c1cc(Cc2n[nH]c(=O)c3ccccc23)ccc1F)N1CCN(C(=O)C2CC2)CC1 + Nc1ccc(C#CCN(C(=O)Cc2ncc(C(F)(F)F)cc2C(F)(F)F)c2ccc(F)cc2)nn1
96.9%

* * *

// reported viability, T/C for each item listed
# Test system: 415267-285-R-J2-PDC complex spheroid viability
# ASSAY_TEXT: Anticancer human tumor 415267-285-R-J2-PDC cell line growth inhibition [POLQ];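 further: luminescence used as stand-in measure of viable cells; spheroids exposed to compounds for one week before readout; 100% = DMSO vehicle control viability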
# STATED_CONDITIONS: second compound 10 µM; first compound 0.0316 µM; active compounds read low
Please reply with the bare figure in % and do not write the unit itself.

Answered examples (3):
- CC[C@@]1(O)C(=O)OCc2c1cc1n(c2=O)Cc2cc3c(CN(C)C)c(O)ccc3nc2-1 + Nc1ccc(C#CCN(C(=O)Cc2ncc(C(F)(F)F)cc2C(F)(F)F)c2ccc(F)cc2)nn1: 32.2
- Cn1ncnc1[C@H]1c2n[nH]c(=O)c3cc(F)cc(c23)N[C@@H]1c1ccc(F)cc1 + Cc1cccc(N(C)C(=O)C2C(O)CCN2c2nc(C)cc(C(F)(F)F)c2C#N)c1: 91
- CCCS(=O)(=O)Nc1ccc(F)c(C(=O)c2c[nH]c3ncc(-c4ccc(Cl)cc4)cc23)c1F + Cc1cccc(N(C)C(=O)C2C(O)CCN2c2nc(C)cc(C(F)(F)F)c2C#N)c1: 96.4

Let us move to another entry and its viability, T/C.
Enter measured viability, T/C, system 415267-285-R-J2-PDC complex spheroid viability, for the molecule shown: C=CCn1c(=O)c2cnc(Nc3ccc(N4CCN(C)CC4)cc3)nc2n1-c1cccc(C(C)(C)O)n1 + COC1C(OC(N)=O)C(O)C(Oc2ccc3c(O)c(NC(=O)c4ccc(O)c(CC=C(C)C)c4)c(=O)oc3c2C)OC1(C)C
106

* * *

# Tested on: 415267-285-R-J2-PDC complex spheroid viability
# ASSAY_TEXT: Anticancer human tumor 415267-285-R-J2-PDC cell line growth inhibition [POLQ];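 further: luminescence used as stand-in measure of viable cells; spheroids exposed to compounds for one week before readout; 100% = DMSO vehicle control viability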
# STATED_CONDITIONS: second compound 0.316 µM; first compound 1 µM; active compounds read low
// reported viability, T/C for each item listed
Please reply with the bare figure in % and do not write the unit itself.

Answered examples (2):
- COc1cccc2c1C(=O)c1c(O)c3c(c(O)c1C2=O)CC(O)(C(=O)CO)CC3OC1CC(N)C(O)C(C)O1 (stereo not given) + Nc1ccc(C#CCN(C(=O)Cc2ncc(C(F)(F)F)cc2C(F)(F)F)c2ccc(F)cc2)nn1: 0.8
- O=C(c1cc(Cc2n[nH]c(=O)c3ccccc23)ccc1F)N1CCN(C(=O)C2CC2)CC1 + Cc1cccc(N(C)C(=O)C2C(O)CCN2c2nc(C)cc(C(F)(F)F)c2C#N)c1: 111

Quick one: give measured viability, T/C for CCc1c2c(nc3ccc(O)cc13)-c1cc3c(c(=O)n1C2)COC(=O)[C@]3(O)CC + Nc1ccc(C#CCN(C(=O)Cc2ncc(C(F)(F)F)cc2C(F)(F)F)c2ccc(F)cc2)nn1
1.12

Quick one: give measured viability, T/C for CC1COCCN1c1cc(C2(O)CC3CCC(C2)O3)c2cnn(-c3ccn[nH]3)c2n1 (stereo not given) + Nc1ccc(C#CCN(C(=O)Cc2ncc(C(F)(F)F)cc2C(F)(F)F)c2ccc(F)cc2)nn1
3.94

Quick one: give measured viability, T/C for CCCS(=O)(=O)Nc1ccc(F)c(C(=O)c2c[nH]c3ncc(-c4ccc(Cl)cc4)cc23)c1F + COC1C(OC(N)=O)C(O)C(Oc2ccc3c(O)c(NC(=O)c4ccc(O)c(CC=C(C)C)c4)c(=O)oc3c2C)OC1(C)C
104

* * *

# Test system: 415267-285-R-J2-PDC complex spheroid viability
# ASSAY_TEXT: Anticancer human tumor 415267-285-R-J2-PDC cell line growth inhibition [POLQ];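 further: luminescence used as stand-in measure of viable cells; spheroids exposed to compounds for one week before readout; 100% = DMSO vehicle control viability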
# STATED_CONDITIONS: second compound 0.0316 µM; first compound 1 µM; active compounds read low
# Procedure: Multicellular complex tumor spheroid response to Polymerase (POL) inhibitors (novobiocin, ART-558, RP6685) in combination with a variety of drugs and investigational agents in selected tumor cell lines The POL inhibitors (novobiocin, ART-558, and RP6685) were evaluated both individually and in combination with standard of care and investigational anticancer small molecules within a complex spheroid model of solid tumors. . […]
READOUT: viability, T/C (%)
Please reply with the bare figure in % and do not write the unit itself.

- C=CC(=O)N1CCN(c2nc(=O)n(-c3c(C)ccnc3C(C)C)c3nc(-c4c(O)cccc4F)c(F)cc23)C(C)C1 (configuration not stated) + Nc1ccc(C#CCN(C(=O)Cc2ncc(C(F)(F)F)cc2C(F)(F)F)c2ccc(F)cc2)nn1: 114

Let us move to another entry and its viability, T/C.
Quick one: give measured viability, T/C for COc1ccc([C@@H](O)c2cc(-c3ncnc4cc(N5CCOCC5)ccc34)c(F)cc2Cl)nn1 + Nc1ccc(C#CCN(C(=O)Cc2ncc(C(F)(F)F)cc2C(F)(F)F)c2ccc(F)cc2)nn1
106

* * *

# Tested on: 415267-285-R-J2-PDC complex spheroid viability
# ASSAY_TEXT: Anticancer human tumor 415267-285-R-J2-PDC cell line growth inhibition [POLQ];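 further: luminescence used as stand-in measure of viable cells; spheroids exposed to compounds for one week before readout; 100% = DMSO vehicle control viability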
# STATED_CONDITIONS: second compound 0.316 µM; first compound 3.16 µM; active compounds read low
READOUT: viability, T/C (%)
Please reply with the bare figure in % and do not write the unit itself.

* C=CC(=O)N1CCN(c2nc(=O)n(-c3c(C)ccnc3C(C)C)c3nc(-c4c(O)cccc4F)c(F)cc23)C(C)C1 (stereo not given) + COC1C(OC(N)=O)C(O)C(Oc2ccc3c(O)c(NC(=O)c4ccc(O)c(CC=C(C)C)c4)c(=O)oc3c2C)OC1(C)C | 112
* C#Cc1c(F)ccc2cc(O)cc(-c3ncc4c(N5CC6CCC(C5)N6)nc(OCC56CCCN5CC(F)C6)nc4c3F)c12 (stereo not given) + Cc1cccc(N(C)C(=O)C2C(O)CCN2c2nc(C)cc(C(F)(F)F)c2C#N)c1 | 113
* COc1cc(C2c3cc4c(cc3C(OC3OC5COC(C)OC5C(O)C3O)C3COC(=O)C23)OCO4)cc(OC)c1O (stereo not given) + Nc1ccc(C#CCN(C(=O)Cc2ncc(C(F)(F)F)cc2C(F)(F)F)c2ccc(F)cc2)nn1 | 5.09

Quick one: give measured viability, T/C for O=C(c1cc(Cc2n[nH]c(=O)c3ccccc23)ccc1F)N1CCN(C(=O)C2CC2)CC1 + Cc1cccc(N(C)C(=O)C2C(O)CCN2c2nc(C)cc(C(F)(F)F)c2C#N)c1
95.8
